Numbers sourced from patent US20260034119A1.

log10(EC50): recorded values
- experimentalSystem: human 5-HT1A (Homo sapiens, UniProt P08908)
- experimentNotes: cell-based
metricName: log10(EC50) (log10 of the value in nM)

molecule=CCN(C)CCc1c[nH]c2ccccc12 observedvalue=2.48
molecule=CCN(C)CCc1c[nH]c2cccc(O)c12 observedvalue=2.89
molecule="COc1ccc2[nH]cc(CCN3CCCC3C)c2c1 (stereo not shown)" observedvalue=0.38
molecule=COc1ccc2c(CCN3CC=CC3)c[nH]c2c1 observedvalue=1.49
molecule=COc1ccc2c(c1)c(CCn1cccc1)cn2C observedvalue=3.82
molecule=c1ccc2c(CCN3CCCCC3)c[nH]c2c1 observedvalue=2.69
molecule=COc1ccc2c(c(CCN3CCCC3)cn2C)c1F observedvalue=2.00

----------
- experimentNotes: Mouse plasma protein binding
- Format: in vitro ADME
metricName: recovery (%)

testsmiles=COc1ccc2[nH]cc(CCN3CCCC3)c2c1F observedvalue=84.7

----------
- experimentNotes: Mouse brain tissue binding
- Assay type: in vitro ADME
- protocolConditions: mouse, brain tissue, read-out: % Bound Mean (converted)
metricName: fraction unbound

compound="COc1ccc2[nH]cc(CCN3CCCC3)c2c1F [4-F, 5-MeO-PyrT]" metricname="fraction unbound" observedvalue=0.175

----------
- experimentNotes: In vivo pharmacokinetics in mice (plasma and brain, subcutaneous)
- Set-up: species or system mouse
- protocolConditions: male, C57BL/6, mouse, brain and plasma, sc, 1 mg/kg, mouse, 1 mg/kg s.c.; read-out: total brain:plasma ratio
metricName: Kp

testsmiles=COc1ccc2[nH]cc(CCN3CCCC3)c2c1F observedvalue=3.3

----------
- experimentalSystem: UniProt P08908
- Sequence (P08908 1-422): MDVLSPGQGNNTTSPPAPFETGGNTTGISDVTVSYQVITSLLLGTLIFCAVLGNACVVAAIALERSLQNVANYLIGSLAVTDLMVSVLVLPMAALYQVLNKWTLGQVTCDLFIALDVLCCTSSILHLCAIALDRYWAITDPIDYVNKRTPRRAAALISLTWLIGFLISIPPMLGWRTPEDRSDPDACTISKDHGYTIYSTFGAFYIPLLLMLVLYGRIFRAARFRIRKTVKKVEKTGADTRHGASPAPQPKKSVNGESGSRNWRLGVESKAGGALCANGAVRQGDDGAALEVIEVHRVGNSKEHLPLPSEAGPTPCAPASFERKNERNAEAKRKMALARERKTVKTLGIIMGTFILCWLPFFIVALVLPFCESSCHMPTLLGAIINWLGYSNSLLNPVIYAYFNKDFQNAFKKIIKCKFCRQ
- experimentNotes: 5-HT1A-mediated cAMP reduction assay (GloSensor, HEK293-T)
- protocolConditions: Activity (5-HT1A cAMP) EC50 (nM), Table 5
EC50: recorded values
metricName: EC50 (nM)

testsmiles=CCN(CC)CCc1c[nH]c2ncccc12 metricname=EC50 observedvalue=7800
testsmiles=COc1ccc2occ(CCN3CC=CCC3)c2c1 metricname=EC50 observedvalue=7130
testsmiles=CN(C)CCc1c[nH]c2ncccc12 metricname=EC50 observedvalue=1910
testsmiles=COc1ccc2occ(CCN3CCCC3)c2c1 metricname=EC50 observedvalue=7.19
testsmiles=COc1ccc2occ(CCN(C)C)c2c1 metricname=EC50 observedvalue=178
testsmiles=c1cnc2[nH]cc(CCN3CCCCC3)c2c1 metricname=EC50 observedvalue=18500
testsmiles=c1cnc2[nH]cc(CCN3CCCC3)c2c1 metricname=EC50 observedvalue=3240
testsmiles=COc1ccc2occ(CCN3CCCCC3)c2c1 metricname=EC50 observedvalue=416
